# System: MDA-MB-435
# Procedure Text: NCI tumour cell line growth inhibition, 48 h
Calls of active or inactive are those of the source. Rule as the data show it: active = GI50 up to about 1.1 µM and inactive = higher.
Readout Kind: GI50

N/C(=N\O)NCCN1CCCCCCC1 ... > 100 µM (inactive)
COc1cccc2c1C(=O)c1c(O)c3c(c(O)c1C2=O)C[C@@](O)(C(C)=O)C[C@@H]3OC1CC(N(Cc2ccccc2)Cc2ccccc2)C(O)C(C)O1 (stereo partly specified) ... 4.53 µM (inactive)
CS/C(=N\Nc1cnc2ccccc2n1)NS(=O)(=O)c1cc(C)c(Cl)cc1Cl ... > 100 µM (inactive)
CC(C)c1ccc2c(c1)CCC1C(C)(CN)CCCC21C (stereo unspecified) ... 1.44 µM (inactive)

Please supply GI50 for each of the following items, keeping them in order.
1. O=C(NCCCl)N(O)C(=O)Nc1ccccc1
2. N/N=C(\Nc1ccccc1)SCc1ccccc1
3. C=CCn1c(=O)c(C)cn(/C(=C/C(=O)OCC)C(=O)OCC)c1=O
4. CC(=O)c1sc(=N)n(-c2c(C)cccc2C)c1C

Response:
> 100 µM (inactive)
> 100 µM (inactive)
13.5 µM (inactive)
> 100 µM (inactive)

----------
# Tested on: NCI-H460
# Procedure Text: NCI tumour cell line growth inhibition, 48 h
Calls of active or inactive are those of the source. No stated cut-off is given here; in the data, active = GI50 up to about 1.1 µM and inactive = higher.
Write down the outcome that applies. Available outcomes: 1 for active, -1 for inactive

CCOc1ccccc1NC(=O)C(=O)C1C(=O)Nc2ccccc2[S+]1[O-] (centres undefined) ... -1
CCCCCCCCCCCCCCCCC(C(=O)O)C(O)(CC(=O)O)C(=O)O (centres undefined) ... -1
CCCNC(=O)CCC(C)C1CCC2C3C(C[C@H](OC(C)=O)[C@]12C)[C@@]1(C)CCC2(C[C@H]1C[C@H]3OC(C)=O)OOC1(CC[C@]3(C)C4C[C@H](OC(C)=O)[C@]5(C)C(C(C)CCC(=O)NCCC)CCC5C4[C@H](OC(C)=O)C[C@@H]3C1)OO2 (some centres undefined) ... -1
Cc1cc(Cl)nc2nc(Cl)c(N)cc12 ... -1
COc1ccc(-c2nc(N)nc(-c3cc(C)ccc3O)c2Cl)cc1 ... -1

Prompt: Assay outcome for `CC1(C)Cc2c(c3ccccc3c3nc4c(nc23)c2c(c3ccccc34)OC(C)(C)C2)O1` : what was it?
Response: -1

Prompt: Assay outcome for `Cc1cnc2nc(-c3sccc3C)cc(O)c2c1` : what was it?
Response: -1

Prompt: Assay outcome for `C/C(=N/NC(=S)N(Cc1ccccn1)Cc1ccccn1)c1cnccn1` : what was it?
Response: 1

Prompt: Assay outcome for `Cc1nc2ccc(Cl)cc2c(Cl)c1CCCl` : what was it?
Response: -1

Prompt: Assay outcome for `CN1CCN2CCN(C)CCN(CC1)CC2` : what was it?
Response: -1

Prompt: Assay outcome for `CCOC(=O)NC(=O)c1cn(-c2ccc(CCOC(=O)NCCCCCCNC(=O)OCCc3ccc(-n4c(=O)[nH]cc(C(=O)NC(=O)OCC)c4=O)cc3)cc2)c(=O)[nH]c1=O` : what was it?
Response: -1

Prompt: Assay outcome for `O=C(CC(=O)Nc1ccc(Cl)cc1)NNCC(=O)Nc1nc(-c2ccccc2)cs1` : what was it?
Response: -1

----------
# System: EKVX
# Procedure Text: NCI tumour cell line growth inhibition, 48 h
Activity calls are given as the source filed them. No stated cut-off is given here; in the data, active = GI50 up to about 1.1 µM and inactive = higher.
Write down the outcome that applies. Available outcomes: active, inactive

Prompt: Assay outcome for `O=[As](O)(O)c1cc(/N=N/c2ccc(-c3ccc(/N=N/c4cc([As](=O)(O)O)c(O)cc4O)cc3)cc2)c(O)cc1O` : what was it?
Response: inactive

Prompt: Assay outcome for CC1=CC(c2ccccc2)n2c(nc3cc4ccccc4cc32)N1 (centres undefined) : what was it?
Response: inactive

Prompt: Assay outcome for `O=C(NCCC1([N+](=O)[O-])CCN(C(=O)c2ccccc2)CC1)c1ccccc1` : what was it?
Response: inactive

Prompt: Assay outcome for `CC(=O)NCCCCN(CCCNC(C)=O)C(=O)CNS(=O)(=O)c1cccc2c(N(C)C)cccc12` : what was it?
Response: inactive

Prompt: Assay outcome for CC(=O)NC(C)(C)C1CCC(C)CC1 (centres undefined) : what was it?
Response: inactive

----------
# Tested on: OVCAR-3
# Procedure Text: NCI tumour cell line growth inhibition, 48 h
The source made the active and inactive calls. Cut-off read from the data, not from the text of the source: active = GI50 up to about 1.1 µM and inactive = higher.
Write down the outcome that applies. Available outcomes: Y (active), N (inactive)

Would you please look over these solved cases?
CC(C)=CC(=O)c1[nH]c2ccccc2c1CC(=O)NCCc1cncn1C ... N
OC1(c2ccc(Cl)cc2)C(N2CCCC2)c2ccccc2C2=NCCN21 (stereo unspecified) ... N
Cc1ccc(S(=O)(=O)NC(=O)Nc2cc(Cl)c(S(N)(=O)=O)cc2S(N)(=O)=O)cc1 ... N
O=[N+]([O-])c1ccc(C2c3c(O)nc(O)nc3Oc3nc(O)nc(O)c32)cc1 ... N
CCOC(=O)C1(C(=O)OCC)CCCN1C(=O)[C@H](CNC(=O)OC(C)(C)C)NC(=O)OCc1ccccc1 ... N

Please turn your attention to the following entry.
Prompt: Assay outcome for COc1ccc(OC)c2c3c(ccc12)C(c1ccccc1)OC3=O (stereo unspecified) : what was it?
Response: N

----------
# Test system: SK-MEL-28
# Procedure Text: NCI tumour cell line growth inhibition, 48 h
Calls of active or inactive are those of the source. Cut-off read from the data, not from the text of the source: active = GI50 up to about 1.1 µM and inactive = higher.
Write down the outcome that applies. Available outcomes: 1 for active, -1 for inactive

Would you please look over these solved cases?
Cc1ccc(C)n2c1nc1ccc3ccccc3c12 ... -1
COc1ccc2cc(C(C)C(O)c3cc(F)c(F)c(F)c3F)ccc2c1 (stereo not drawn) ... -1
CCOc1ccc2nc3nc(O)nc(C)c3c(NC(C)(CO)CO)c2c1 ... -1

Prompt: Assay outcome for COc1cc(C(C)c2cc3c(cc2OCCCCCOc2cc4c(cc2C(C)c2cc(OC)c(OC)c(OC)c2)OCO4)OCO3)cc(OC)c1OC (stereo not drawn) : what was it?
Response: -1

Prompt: Assay outcome for `Clc1ccc(/C=c2\nc(-c3ccccc3)n3c2nc2ccccc23)cc1` : what was it?
Response: 1

Prompt: Assay outcome for `COc1ccccc1/N=N/C(C(=O)c1ccccc1)C(=O)c1ccccc1` : what was it?
Response: -1

Prompt: Assay outcome for O=C1OC(c2cccc(C(F)(F)F)c2)c2ccc3ccccc3c21 (stereo not drawn) : what was it?
Response: -1

Prompt: Assay outcome for `CC(C)=CC(=O)c1[nH]c2ccccc2c1CC(=O)NCCc1cncn1C` : what was it?
Response: -1

Prompt: Assay outcome for O=C(O)C1CCCN(CCc2c[nH]c3ccccc23)C1 (stereo not drawn) : what was it?
Response: -1

Prompt: Assay outcome for OCc1ccc(C2CC(c3ccco3)=NN2c2ccccc2)o1 (stereo not drawn) : what was it?
Response: -1

Prompt: Assay outcome for `N/N=C(\Nc1ccccc1)SCc1ccccc1` : what was it?
Response: -1

Prompt: Assay outcome for COC(=O)C(C(=O)C(=O)Nc1nnc(S)[nH]1)c1csc(N)n1 (stereo not drawn) : what was it?
Response: -1

----------
Give GI50 for every item shown.
# Test system: MDA-N
# Procedure Text: NCI tumour cell line growth inhibition, 48 h
The source made the active and inactive calls. Cut-off read from the data, not from the text of the source: active = GI50 up to about 1.1 µM and inactive = higher.

Here's what some known entries look like.
COC(OC)C1OC(CO)C(n2ccc(N)nc2=O)C1O (stereo not given) ... > 100 µM (inactive)
O=C(O)C1CCCN(CCc2c[nH]c3ccccc23)C1 (stereo not given) ... > 100 µM (inactive)
CC1S/C(=N\N=C2/C(=O)Nc3ccc(Br)cc32)N(C2CCCCC2)C1=O (stereo not given) ... 12.1 µM (inactive)
CC(=O)NCCCCN(CCCNC(C)=O)C(=O)CNS(=O)(=O)c1cccc2c(N(C)C)cccc12 ... > 100 µM (inactive)

Please supply GI50 for each of the following items, keeping them in order.
1. O=C1c2ccccc2CN1c1ccc(OCCN2CCCCC2)cc1
2. COc1cc(C2S/C(=C/c3ccccc3)C(=O)N2c2ccc(Cl)cc2)cc(OC)c1OC (stereo not given)
3. CCOC(=O)c1ccc(OCc2nc3cc(C(F)(F)F)ccc3nc2-c2ccccc2)cc1
4. Cc1c(C)c2c(c(N)c1C#N)C(=O)N(OS(=O)(=O)c1ccccc1)C2=O
5. CC1CCC(O)/C=C/C(=O)OC(C)C(O)/C=C/C(=O)O1 (stereo not given)
6. O=C(/N=N/c1ccc([N+](=O)[O-])cc1)NNc1ccc([N+](=O)[O-])cc1

Response:
1. > 10 µM (inactive)
2. 1.58 µM (inactive)
3. > 100 µM (inactive)
4. 29.8 µM (inactive)
5. > 95.9 µM (inactive)
6. 11.6 µM (inactive)

----------
# Tested on: IGROV-1
# Procedure Text: NCI tumour cell line growth inhibition, 48 h
Active and inactive are the calls of the source. No stated cut-off is given here; in the data, active = GI50 up to about 1.1 µM and inactive = higher.
Give GI50 for every item shown.

Cc1ccc(C)c2sc3cc(=O)ccc-3nc12 ... 82 µM (inactive)
O=C(/N=N/c1ccc([N+](=O)[O-])cc1)NNc1ccc([N+](=O)[O-])cc1 ... 12.8 µM (inactive)
CCNC1C2(CCCCC2)NC(=O)C12CCCCC2 (stereo unspecified) ... > 100 µM (inactive)
CC(Oc1ccc(Cl)cc1Cl)C(=O)NN1C(=O)CSC1c1ccc(Cl)cc1 (stereo unspecified) ... 36.1 µM (inactive)
CO[P@@]1(=O)O[C@@H](c2ccccc2)[C@H](O)[C@]1(O)c1ccccc1 ... > 100 µM (inactive)
O=c1cnn2c(n1)sc1ccc3ccccc3c12 ... > 100 µM (inactive)
Nc1nc(-c2ccccc2)nc2c1[n+]([O-])c1ccccc1[n+]2[O-] ... > 100 µM (inactive)
CS/C(=N\Nc1cnc2ccccc2n1)NS(=O)(=O)c1cc(C)c(Cl)cc1Cl ... 21.1 µM (inactive)

Please supply GI50 for each of the following items, keeping them in order.
1. CCCCCCCCCCCCC(CCCCCCCCCCCC)OP(=O)(O)O
2. COc1ccc2c(c1)CC1C3(CCCCC23)CC[N+]1(C)C (stereo unspecified)
3. Cc1cn2c(/C=N/NC(=N)N)c(-c3cccc([N+](=O)[O-])c3)nc2s1

Response:
["87.3 µM (inactive)", "> 100 µM (inactive)", "5.56 µM (inactive)"]

Hey, just so you know, these numbers are from ChEMBL document CHEMBL1201862.
